tested on: A431; assay: LBPA endosome anti-LBPA integrated intensity (sum per cell), Z-score; higher = more LBPA staining; conditions: compound concentration in added solution (µM; 5 µl added to 20 µl cells): 10; 18 h
Give LBPA endosome anti-LBPA integrated intensity (z-score) for every item shown.
Answers are plain numbers.

Some solved cases for reference:
Compound: CC(C)(C)C(=O)OCOC(=O)[C@@H]1N2C(=O)[C@@H](NC(=O)[C@H](N)c3ccccc3)[C@H]2SC1(C)C
Test system: A431
Test value: -0.161

Compound: COc1c(N2C[C@@H]3CCCN[C@@H]3C2)c(F)cc2c(=O)c(C(=O)O)cn(C3CC3)c12
Test system: A431
Test value: -0.595

Compound: Cc1cc(=O)n(-c2ccccc2)n1C [Antipyrine]
Test system: A431
Test value: -0.333

Compound: CCCCNc1ccc(C(=O)OCCOCCOCCOCCOCCOCCOCCOCCOCCOC)cc1 [Benzonatate]
Test system: A431
Test value: -0.445

Compound: C[C@H](CCC(=O)O)[C@H]1CC[C@H]2[C@@H]3C(=O)C[C@@H]4CC(=O)CC[C@]4(C)[C@H]3CC(=O)[C@]12C [Dehydrocholic acid]
Test system: A431
Test value: -0.567

Compound: O=C(O)CCC(=O)c1ccc(-c2ccccc2)cc1
Test system: A431
Test value: -0.493

I need LBPA endosome anti-LBPA integrated intensity (z-score) for every entry listed below, if you could help.
1. COc1ccc(-c2cc(=S)ss2)cc1
2. Cc1cc2c(cc1S(N)(=O)=O)S(=O)(=O)CCC2

Output line:
1: -0.536; 2: -0.412
